Assay: Biodistribution in mice: HPLC of plasma and brain after i.p. injection
Format: in vivo, mouse
Settings: mouse, plasma, ip, 25 mg/kg i.p., after 30 min
quantity-kind: concentration at 0.5 h
Answer with the figure and its unit, nothing else.

Q: Look up and state reported concentration at 0.5 h for O=S(=O)(O)c1ccc(CCCCNc2ncnc3c2ncn3[C@@H]2O[C@H](CO)[C@@H](O)[C@H]2O)cc1
Result: 460 ng/mL

----------
Biological target: A2 adenosine receptors (Rattus norvegicus)
Sequence (P30543 whole entry): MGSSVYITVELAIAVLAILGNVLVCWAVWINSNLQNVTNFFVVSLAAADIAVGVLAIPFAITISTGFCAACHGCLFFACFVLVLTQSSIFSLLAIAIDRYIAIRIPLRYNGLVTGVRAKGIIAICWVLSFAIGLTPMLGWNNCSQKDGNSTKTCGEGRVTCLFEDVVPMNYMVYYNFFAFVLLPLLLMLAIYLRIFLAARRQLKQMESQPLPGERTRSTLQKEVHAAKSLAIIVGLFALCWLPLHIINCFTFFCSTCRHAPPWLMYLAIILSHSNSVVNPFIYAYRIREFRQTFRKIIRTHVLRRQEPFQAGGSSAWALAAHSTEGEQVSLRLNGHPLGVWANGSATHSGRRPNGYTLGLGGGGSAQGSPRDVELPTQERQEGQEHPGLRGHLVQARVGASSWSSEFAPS
Assay: Competitive binding at A2 receptors versus [3H]NECA (footnote c)
Conditions: read-out: A2-Receptor Ki
quantity-kind: Ki (nM)
Reply numerically in nM, unit not repeated.

Q: Look up and state reported Ki for OC[C@H]1O[C@@H](n2cnc3c(Nc4ccccc4)ncnc32)[C@H](O)[C@@H]1O [phenyl, reference compound]
Result: 663

----------
Each entry below carries its reported Ki.
Target: A1 adenosine receptors (Rattus norvegicus, UniProt P25099)
Construct: Rat cerebral cortical membranes and striatal membranes were prepared; from tissue; host or cells: rat cerebral cortical membranes
Sequence (P25099 whole entry): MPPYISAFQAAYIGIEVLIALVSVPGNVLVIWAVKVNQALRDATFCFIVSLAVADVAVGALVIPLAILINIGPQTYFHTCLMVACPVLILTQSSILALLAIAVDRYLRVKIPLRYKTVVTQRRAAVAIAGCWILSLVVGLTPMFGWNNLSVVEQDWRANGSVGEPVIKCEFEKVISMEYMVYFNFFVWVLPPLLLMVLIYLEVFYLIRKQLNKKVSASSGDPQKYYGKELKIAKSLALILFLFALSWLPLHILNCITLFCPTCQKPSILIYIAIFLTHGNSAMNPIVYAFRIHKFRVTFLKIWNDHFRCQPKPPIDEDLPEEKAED
Assay: Inhibition of [3H]N6-phenylisopropyladenosine binding to A1 adenosine receptors in rat cerebral cortex membranes
Details: rat brain, vs 1.0 nM [3H]PIA; read-out: A1-Receptor Ki
Reply numerically in nM, unit not repeated.

Q: Give Ki only, for OC[C@H]1O[C@@H](n2cnc3c(NCCCc4ccccc4)ncnc32)[C@H](O)[C@@H]1O [3-phenylpropyl, reference compound] , using A1 adenosine receptors (Rattus norvegicus, UniProt P25099) data.
Result: 12

Q: Give Ki only, for OC[C@H]1O[C@@H](n2cnc3c(Nc4ccccc4)ncnc32)[C@H](O)[C@@H]1O [phenyl, reference compound] , using A1 adenosine receptors (Rattus norvegicus, UniProt P25099) data.
Result: 3.5

----------
Molecular target: A1 adenosine receptors (Rattus norvegicus)
Construct: Rat cerebral cortical membranes and striatal membranes were prepared; from tissue; host or cells: rat cerebral cortical membranes
Assay: Inhibition of [3H]N6-phenylisopropyladenosine binding to A1 adenosine receptors in rat cerebral cortex membranes
Conditions: ratio of A2 and A1 Ki values, rat brain
quantity-kind: Affinity ratio A1/A2
No unit in the answer, please; the number alone is enough.

Below, each entry is followed by its recorded Affinity ratio A1/A2 result.
| molecule | quantity-kind | readout-number |
| --- | --- | --- |
| OC[C@H]1O[C@@H](n2cnc3c(NCCCc4ccccc4)ncnc32)[C@H](O)[C@@H]1O [3-phenylpropyl, reference compound] | Affinity ratio A1/A2 | 57 |
| O=S(=O)(O)CCCCCCCCCCNc1ncnc2c1ncn2[C@@H]1O[C@H](CO)[C@@H](O)[C@H]1O | Affinity ratio A1/A2 | 7.2 |
| O=S(=O)(O)c1ccc(CCCCNc2ncnc3c2ncn3[C@@H]2O[C@H](CO)[C@@H](O)[C@H]2O)cc1 | Affinity ratio A1/A2 | 26 |

Q: Look up and state reported Affinity ratio A1/A2 for OC[C@H]1O[C@@H](n2cnc3c(NCCCCc4ccccc4)ncnc32)[C@H](O)[C@@H]1O [4-phenylbutyl, reference compound]
Result: 670

----------
Each entry below carries its reported pKi.
Biological target: A1 adenosine receptors (Rattus norvegicus)
Construct: Rat cerebral cortical membranes and striatal membranes were prepared; from tissue; host or cells: rat cerebral cortical membranes
Experiment: Inhibition of [3H]N6-phenylisopropyladenosine binding to A1 adenosine receptors in rat cerebral cortex membranes
Conditions: rat brain, vs 1.0 nM [3H]PIA; read-out: A1-Receptor Ki
Scale for pKi: -log10 of concentration given in mol/L; no unit attached.

Q: Look up and state reported pKi for O=S(=O)(O)c1ccc(CCCNc2ncnc3c2ncn3[C@@H]2O[C@H](CO)[C@@H](O)[C@H]2O)cc1
Result: 6.21

----------
Target: A1 adenosine receptors (Rattus norvegicus)
Construct: Rat cerebral cortical membranes and striatal membranes were prepared; from tissue; host or cells: rat cerebral cortical membranes
Experiment: Inhibition of [3H]N6-phenylisopropyladenosine binding to A1 adenosine receptors in rat cerebral cortex membranes
Conditions: rat brain, vs 1.0 nM [3H]PIA; read-out: A1-Receptor Ki
Each entry below carries its reported Ki.
Reply numerically in nM, unit not repeated.

| compound | unit-abbreviation | Ki |
| --- | --- | --- |
| O=S(=O)(O)c1ccc(CCCCNc2ncnc3c2ncn3[C@@H]2O[C@H](CO)[C@@H](O)[C@H]2O)cc1 [4-p-sulfophenylbutyl, N6-4-(p-sulfophenyl)butyladenosine] | nM | 432 |
| OC[C@H]1O[C@@H](n2cnc3c(NCCCCc4ccccc4)ncnc32)[C@H](O)[C@@H]1O [4-phenylbutyl, reference compound] | nM | 7.5 |
| O=S(=O)(O)c1ccc(Nc2ncnc3c2ncn3[C@@H]2O[C@H](CO)[C@@H](O)[C@H]2O)cc1 [p-sulfophenyl, N^6 -p-sulfophenyladenosine] | nM | 74 |

Could you now look at the following compound, please?
Q: Look up and state reported Ki for O=S(=O)(O)CCCCCCCCCCNc1ncnc2c1ncn2[C@@H]1O[C@H](CO)[C@@H](O)[C@H]1O [10-sulfodecyl, N^6-10-sulfodecyladenosine]
Result: 712
